- assayOverview: Clearance in […] Wistar rat at 0.5 mg/kg, iv and 2 mg/kg, po
- Assay type: ADME, organism-based
- studyConditions: in vivo
Give measured clearance for each item. Keep answers brief.

Fc1ccc2[nH]ccc2c1-c1nc(N2CCOCC2)c2sc(CN3CCN4CCOC[C@H]4C3)cc2n1 :: 25.2 mL/min/kg

Field: next compound
Q: Would you kindly share the measured clearance for CC(C)(C(N)=O)N1CCN(Cc2cc3nc(-c4c(F)ccc5[nH]ccc45)nc(N4CCOCC4)c3s2)CC1 ?
Result: 31.3 mL/min/kg

---

- assayOverview: Selectivity ratio of IC50 for PI3Kalpha to IC50 for PI3Kdelta
# label = Criterion met if Ratio IC50 >= 90 else Criterion not met

Reference set (5 entries):
Cn1ccc2c(-c3nc(N4CCOCC4)c4sc(CN5CCN(C(C)(C)C(N)=O)CC5)cc4n3)cccc21 :: Criterion not met
Cc1cccc(-c2nc(N3CCOCC3)c3sc(CN4CCC(N(C)C)CC4)cc3n2)c1 :: Criterion met
Cc1cc2c(-c3nc(N4CCOCC4)c4sc(CN5CCN(C(C)(C)C(N)=O)CC5)cc4n3)cccc2[nH]1 :: Criterion met
CN(C)C1CCN(Cc2cc3nc(-c4n[nH]c5ccccc45)nc(N4CCOCC4)c3s2)CC1 :: Criterion not met
Cc1ncc2ccccc2c1-c1nc(N2CCOCC2)c2sc(CN3CCC(N(C)C)CC3)cc2n1 :: Criterion met

Q: # bool: Ratio IC50 of CC(C)(C(N)=O)N1CCN(Cc2cc3nc(-c4cccc5[nH]ncc45)nc(N4CCOCC4)c3s2)CC1 >= 90
Result: Criterion not met

Q: Identify whether the reported Ratio IC50 of the following compound is 90 or greater: Cc1nc2ccccc2n1-c1nc(N2CCOCC2)c2sc(CN3CCN(C(C)(C)C(N)=O)CC3)cc2n1
Result: Criterion not met

Q: Does the reported Ratio IC50 for CCc1nc2ccccc2n1-c1nc(N2CCOCC2)c2sc(CN3CCN(S(C)(=O)=O)CC3)cc2n1 fall at or above the 90 mark?
Result: Criterion not met

Q: Could you verify whether the entry CN(C)C1CCN(Cc2cc3nc(-n4ncc5ccccc54)nc(N4CCOCC4)c3s2)CC1 shows Ratio IC50 of no less than 90?
Result: Criterion not met

Q: Does the compound CC(C)(C(N)=O)N1CCN(Cc2cc3nc(-c4nccc5[nH]ccc45)nc(N4CCOCC4)c3s2)CC1 have recorded Ratio IC50 that is 90 or more?
Result: Criterion not met

---

- assayOverview: Selectivity ratio of IC50 for PI3Kbeta to IC50 for PI3Kdelta
Decision: Ratio IC50 compared against 70; not below it gives condition met, below it gives condition not met.

Q: Can CC(C)(C(N)=O)N1CCN(Cc2cc3nc(-c4cccc5[nH]ccc45)nc(N4CCOCC4)c3s2)CC1 be said to have Ratio IC50 at or above 70?
Result: condition met

Q: Test whether the compound CC(C)(C(N)=O)N1CCN(Cc2cc3nc(-c4cncc5[nH]ccc45)nc(N4CCOCC4)c3s2)CC1 records Ratio IC50 of 70 or higher.
Result: condition not met

Q: Item Cn1ccc2c(-c3nc(N4CCOCC4)c4sc(CN5CCN(C(C)(C)C(N)=O)CC5)cc4n3)cccc21 with Ratio IC50 of 70 or above?
Result: condition met

---

- assayOverview: Selectivity ratio of IC50 for PI3Kgamma to IC50 for PI3Kdelta
Assignment: determine reported Ratio IC50 for the given compounds.
Numbers only.

Provide each entry's Ratio IC50 from the list below.
1. CC(C)(C(N)=O)N1CCN(Cc2cc3nc(-c4ccnc5[nH]ccc45)nc(N4CCOCC4)c3s2)CC1
2. Cc1cc2c(-c3nc(N4CCOCC4)c4sc(CN5CCN(C(C)(C)C(N)=O)CC5)cc4n3)cccc2[nH]1
3. Fc1ccc2[nH]ccc2c1-c1nc(N2CCOCC2)c2sc(CN3CCN4CCOC[C@H]4C3)cc2n1
4. CC(C)(C(N)=O)N1CCN(Cc2cc3nc(-c4cc(C#N)cc5[nH]ccc45)nc(N4CCOCC4)c3s2)CC1

Result:
81
715
806
691
